Hey, just so you know, these numbers are from the RNAGym collection of RNA variant scans (doi:10.1002/anie.201605470).

Assign self-cleavage to each entry below.
B1: Osa-1-4 twister ribozyme (parent)
chain: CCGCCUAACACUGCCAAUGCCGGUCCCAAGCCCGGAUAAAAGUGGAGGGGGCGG

- Variants of: B1
- test: self-cleavage, relative activity (ratio to wild type); higher = more cleavage; co-transcriptional
Respond numerically, and do not add a unit to the figure.

Query: # lookup: self-cleavage of A40G G42A
Response: 0.14

Query: Please report the recorded self-cleavage for G22U U37A .
Response: 0.93

Query: Consider the variant C32A G50C and give its measured self-cleavage.
Response: 0.07

Query: I'd like to know its self-cleavage. The variant in question is C52G U43G
Response: 0.65

Query: Record request: self-cleavage value, item C26G C27U
Response: 0.07

Query: Look up self-cleavage: C15A G13C
Response: 0.04

Query: Field request: self-cleavage | item: C31U G42U
Response: 0.03

Query: Please report the recorded self-cleavage for A46C C31A .
Response: 0.01

Query: So what's the measured self-cleavage for this one? C20A G54C
Response: 0.78

Query: Please give the measured self-cleavage for this variant: A10U G54A
Response: 0.06

Query: Which self-cleavage value belongs to G50A U37G ?
Response: 0.74

Query: Return reported self-cleavage; argument: A28C G30A
Response: 0.04

Query: Give its self-cleavage value. Item: C14U G47C
Response: 0.06

Query: Look up self-cleavage for this variant: A10U A29U
Response: 0.03

Query: GET /values?readout=self-cleavage&item= A38C G44A
Response: 0.99

Query: Bench note: what self-cleavage did C31G G19U show?
Response: 0.05

Query: Return reported self-cleavage; argument: A46C G47C
Response: 0.02

Query: Could you share which self-cleavage value was measured for A38G A40U ?
Response: 0.32

Query: Would you mind telling me what self-cleavage value was observed for C33G G44A ?
Response: 0.05

Query: Form field: reported self-cleavage of C11U U37A
Response: 0.62

Query: Quick one: self-cleavage for C32A U12A ?
Response: 0.07

Query: Fill in: self-cleavage of A16C G30C is ___
Response: 0.05

Query: Returns the measured self-cleavage for the input variant. Input: A7C C20U
Response: 0.06

Query: Consider the variant shown here: A10C G50C What is its recorded self-cleavage?
Response: 0.04

Query: Please report the recorded self-cleavage for A28C G54A .
Response: 0.91

Query: Which self-cleavage is reported for this variant? G23A G54U
Response: 0.41

Query: Item under review: A7U G19C . Reported self-cleavage?
Response: 0.03

Query: Field request: self-cleavage | item: A46U C25U
Response: 0.06

Query: What value of self-cleavage has been reported for the following variant? A16C G22A
Response: 0.76

Query: Given A46G U12G , state its recorded self-cleavage.
Response: 0.07

Query: Entry C27G G51C : reported self-cleavage = ?
Response: 0.02

Query: Endpoint output: self-cleavage of G42C G45A . Value?
Response: 0.06

Query: // self-cleavage lookup, key: A17C U43A
Response: 0.64

Query: Any idea what self-cleavage was measured for C25U U12C ?
Response: 0.09

Query: Reported self-cleavage, variant A17G C20G : ____
Response: 0.19

Query: GET /values?readout=self-cleavage&item= C21U G35A
Response: 0.98
